Reference for the values: the supplement of paper PMC12042874

Assay: amyloid nucleation score (Sup35N fusion, yeast selection) (log enrichment); library NNK3; higher = more nucleation; inactive = no reads after selection;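 further: zero at mode of non-aggregating sequences after 7 days selection at 30°C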
MEASURED_METRIC: amyloid nucleation score

Consider the worked cases shown below.
{"columns": ["SEQUENCE_RECORD", "amyloid nucleation score"],
 "data": [
  ["IVKKHVDFQQTVN", "inactive"],
  ["CDAAWPVNSPFWYLFLWC", "inactive"],
  ["FIYYDRFVKPSPKQTVSFSA", "inactive"],
  ["RHLLLTGKSWCVQACPGRTV", -0.965],
  ["VCRGQRISACQSRSVCGCWH", "inactive"]
]}

--- query ---
Give a short answer stating reported amyloid nucleation score for LFYMLPIIVFAPVLMAWLSF . inactive

----------
Assay: amyloid nucleation score (Sup35N fusion, yeast selection) (log enrichment); library NNK1; higher = more nucleation; inactive = no reads after selection
MEASURED_METRIC: amyloid nucleation score
Simply state the number, no unit and no words.

Provide one value: measured amyloid nucleation score of GYLSGSMSDETGTPDMCTRG 0.353

Report measured amyloid nucleation score; entry is IPKVIGWFTVVTTGVVVNIS -1.59

Identify measured amyloid nucleation score associated with GFGLVRIPIMFNEAPEVVSK -0.133

Please report the measured amyloid nucleation score for KVHTGTSTRLKLYMHSTLRT 0.454

Output amyloid nucleation score of LFRYNDWCAYHLPSPWWGNR 0.112

Tell me its amyloid nucleation score given MFGGGWDAKWPPIPCLKKVD as the entry. 0.308

Supply measured amyloid nucleation score of NRIKWVKRFSIPFLTWYEDW in your reply. 0.499

Input LCFLWIGVP , output reported amyloid nucleation score. -0.241

State its amyloid nucleation score for this substance: NTNYGLIQFGILLCRFC 6.81

Determine its reported amyloid nucleation score: GFSRQSTWMCRKWSTNPRTW 1.15

For RMMLHRGLYYNVMLNYSLI , write its amyloid nucleation score. 0.86

Supply measured amyloid nucleation score of YKWGWAVYHIGHGCRVWRWT in your reply. 1.49

Please look at this substance and report its amyloid nucleation score: PRGLVWNVPRLSKTVASILF -0.942

Please indicate amyloid nucleation score recorded for TFGLRFVYMAHLVVWCADHR 0.036

Give me measured amyloid nucleation score, please, for this substance: LAVEWWTNVVYVFYAYFANR 0.001

Output amyloid nucleation score of QKSYMCRVGYPF 0.501

Return amyloid nucleation score (reported value) for this substance: NFCDSSGI -0.912

Recall and state the measured amyloid nucleation score for TCISTCYD . -0.183

Give reported amyloid nucleation score value for RVSGMAGFFTIKLLKRRSWA -0.503

Return reported amyloid nucleation score. Input substance: RCKGNGKNISCSPFQSREWY 0.026

Provide one value: measured amyloid nucleation score of MFWQHQLFVESRQNSSFTSF -0.23

State, in one line, measured amyloid nucleation score of NFTNFW -0.732

Fill in reported amyloid nucleation score for this entry: TRRDNVPQHNLGVTLLMVRE -1.29

Identify measured amyloid nucleation score associated with AYHNDWR -0.85

Output measured amyloid nucleation score for this item: SMSPTDICYWCLYHSAYIRD 1.55

Answer with the recorded amyloid nucleation score of NLLTMDIERTGECIDFWVD only. 0.008

Look up and report measured amyloid nucleation score for this entry: QRKPVCSGLTLFHMLNRVTK -0.484

Please indicate amyloid nucleation score recorded for FISVGAFGYTMILNVFN 5.45

Using known records, supply amyloid nucleation score for VAKVLKSSCGRYG -0.573

Please give the documented amyloid nucleation score of ICQYPPLEVLARYGQIQDIM 0.207

Indicate the recorded amyloid nucleation score value for this substance: TSDFVVPM 0.691
